# credit: paper PMC9482650

biological target: TJP1_2, Q07157; assay: holdup assay; design: key: below the threshold = too weak to quantify, mostly under pKd 3.1 to 4; conditions: plain residues with an end cap or a label only (N-terminal biotin on a linker: ado-ado)
Sequence (Q07157 181-274): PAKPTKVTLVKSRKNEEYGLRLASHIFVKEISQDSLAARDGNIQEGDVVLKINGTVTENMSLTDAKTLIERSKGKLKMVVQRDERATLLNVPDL
MEASURE: pKd

Example binders with recorded pKd:
>>> result("KKAPTNEFYA [SDC4, P31431]")
"below the threshold"
>>> result("LPHPHSTTRV [NLGN2, Q8NFZ4]")
"below the threshold"
>>> result("QSARLWETSI [ADAM22, Q9P0K1]")
"below the threshold"
>>> result("DTTVPESEDL [MYOZ2, Q9NPC6]")
"below the threshold"
>>> result("QMNQTLPVQV [EPHB3, P54753]")
3.72
>>> result("KKMPSIESDV [GRIN2A, Q12879]")
"below the threshold"
>>> result("DDENIRTSDV [PLEKHA2, Q9HB19]")
"below the threshold"
>>> result("YRLAQESGLV [ABCC6, O95255]")
"below the threshold"

Would you kindly share the measured pKd for GSGAVEMESV [AQP6, Q13520] ?
below the threshold

Entry under review: TPPAAKKSRI [BAZ1A, Q9NRL2] . Reported pKd?
below the threshold

Which pKd value belongs to YNNCLEILRV [DCAF7, P61962] ?
4.25

State the recorded pKd for this entry: PRISRSQSEL [CCDC134, Q9H6E4]
below the threshold

Which measured pKd value corresponds to QKNRKAQEDL [CES3, Q6UWW8] ?
below the threshold

Reported pKd, binder QSPANIYYKV [EFNB1, P52799] : ____
below the threshold
